Origin of values: patent US20060281789A1

System: K562
testDetails: Cytostatic activity on human chronic myeloid leukemia cell line K562 (WST-1)
Format: cell-based
conditionDetails: 10 μmol/L, 72 hours, read-out: K562 (%) cytostatic rate
Structures can show the parent of a compound that is named as a salt.
Dear colleague, classification is by inhibition at 10 µM, with ranges listed here: low bin: < 60%; mid bin: ≥ 60% and < 90%; high bin: ≥ 90%

compound="C(=C\\c1n[nH]c2ccccc12)/c1ccc(OCCN2CCOCC2)cc1 [Compound 5, hydrochloride]" qualitativelabel="mid bin"
compound=COc1ccc(/C=C/c2n[nH]c3ccccc23)cn1 qualitativelabel="mid bin"
compound=CCOC(=O)COc1ccc(/C=C/c2n[nH]c3ccccc23)cc1 qualitativelabel="low bin"
compound=N#Cc1cc(/C=C/c2n[nH]c3ccccc23)ccc1OCCN1CCOCC1 qualitativelabel="mid bin"
compound="C(=C\\c1n[nH]c2ccccc12)/c1cccnc1 [Compound 21, (E)-3-[2-(3-pyridyl)vinyl]-1H-indazole]" qualitativelabel="low bin"
compound="C(=C\\c1n[nH]c2ccccc12)/c1ccc(N2CCNCC2)cc1.Cl [Compound 53, hydrochloride]" qualitativelabel="mid bin"
compound=Nc1cc(/C=C/c2n[nH]c3ccccc23)ccc1N1CCNCC1 qualitativelabel="mid bin"
compound="CCN(CC)CCOc1ccc(/C=C/c2n[nH]c3ccccc23)cc1 [Compound 6, hydrochloride]" qualitativelabel="high bin"
compound="CC(C)N(CCOc1ccc(/C=C/c2n[nH]c3ccccc23)cc1)C(C)C [Compound 7, hydrochloride]" qualitativelabel="high bin"
compound="CN(C)CCCOc1ccc(/C=C/c2n[nH]c3ccccc23)cc1 [Compound 10, hydrochloride]" qualitativelabel="high bin"
compound="C(=C\\c1n[nH]c2ccccc12)/c1ccc(OCCN2CCCCC2)cc1 [Compound 8, hydrochloride]" qualitativelabel="high bin"
compound="C(=C\\c1n[nH]c2ccccc12)/c1ccc(OCCCN2CCCCC2)cc1 [Compound 9, hydrochloride]" qualitativelabel="high bin"
compound=OCCOc1ccc(/C=C/c2n[nH]c3ccccc23)cc1 qualitativelabel="mid bin"
